Values from the Immune Epitope Database (IEDB)

molecular target: HLA-A*02:19; assay: IEDB peptide-MHC binding, purified MHC/direct/fluorescence; filed as Kd, often an IC50 or EC50 that approximates it; bounds were set here for any values at or beyond the usual limits of such assays; settings: source organism: Reston ebolavirus
METRIC: Kd

Asked: Determine reported Kd for RTYSLLNRK ; test system: HLA-A*02:19.
Given back: ≥ 20 µM

----------
target: HLA-A*11:01; assay: IEDB peptide-MHC binding, purified MHC/direct/fluorescence; filed as Kd, often an IC50 or EC50 that approximates it; bounds were set here for any values at or beyond the usual limits of such assays; settings: source organism: Cowpox virus
METRIC: Kd

Asked: For HLA-A*11:01, give the measured Kd of the entry YKDANISMY
Given back: ≥ 20 µM
